# target.of.assay: PI3Kγ (Homo sapiens, UniProt P48736)
# Construct: HA
# Sequence (P48736 whole entry, species assumed): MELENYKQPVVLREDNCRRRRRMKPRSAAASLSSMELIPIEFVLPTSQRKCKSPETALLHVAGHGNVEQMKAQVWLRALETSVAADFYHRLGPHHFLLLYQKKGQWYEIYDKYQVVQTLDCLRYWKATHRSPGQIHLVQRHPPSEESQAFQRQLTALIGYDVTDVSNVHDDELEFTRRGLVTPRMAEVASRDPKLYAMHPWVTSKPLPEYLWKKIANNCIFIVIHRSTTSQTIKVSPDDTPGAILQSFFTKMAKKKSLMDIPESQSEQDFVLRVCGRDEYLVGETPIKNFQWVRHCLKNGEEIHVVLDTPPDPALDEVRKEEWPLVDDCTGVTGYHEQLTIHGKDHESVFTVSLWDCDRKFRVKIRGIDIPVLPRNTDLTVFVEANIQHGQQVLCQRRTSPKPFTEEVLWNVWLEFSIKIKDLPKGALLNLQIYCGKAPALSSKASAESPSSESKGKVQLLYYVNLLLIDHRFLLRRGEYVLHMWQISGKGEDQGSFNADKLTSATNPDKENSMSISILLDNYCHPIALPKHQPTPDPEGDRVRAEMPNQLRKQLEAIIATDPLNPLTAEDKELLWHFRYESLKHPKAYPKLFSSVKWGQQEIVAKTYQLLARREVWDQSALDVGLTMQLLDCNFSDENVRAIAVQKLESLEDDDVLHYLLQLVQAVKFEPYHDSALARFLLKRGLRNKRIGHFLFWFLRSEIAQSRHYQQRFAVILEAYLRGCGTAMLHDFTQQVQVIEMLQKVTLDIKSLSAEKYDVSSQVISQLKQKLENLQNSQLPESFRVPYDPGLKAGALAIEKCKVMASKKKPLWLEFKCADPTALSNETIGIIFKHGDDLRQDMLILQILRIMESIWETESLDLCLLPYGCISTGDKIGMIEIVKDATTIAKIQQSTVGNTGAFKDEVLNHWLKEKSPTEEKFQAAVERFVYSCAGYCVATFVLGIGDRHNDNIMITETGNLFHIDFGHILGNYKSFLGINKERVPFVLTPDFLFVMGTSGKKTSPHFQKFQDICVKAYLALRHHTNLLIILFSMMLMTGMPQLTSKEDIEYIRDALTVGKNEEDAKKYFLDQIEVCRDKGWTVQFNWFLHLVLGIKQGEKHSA
# Sequence (Q8WYR1 whole entry partner, species assumed): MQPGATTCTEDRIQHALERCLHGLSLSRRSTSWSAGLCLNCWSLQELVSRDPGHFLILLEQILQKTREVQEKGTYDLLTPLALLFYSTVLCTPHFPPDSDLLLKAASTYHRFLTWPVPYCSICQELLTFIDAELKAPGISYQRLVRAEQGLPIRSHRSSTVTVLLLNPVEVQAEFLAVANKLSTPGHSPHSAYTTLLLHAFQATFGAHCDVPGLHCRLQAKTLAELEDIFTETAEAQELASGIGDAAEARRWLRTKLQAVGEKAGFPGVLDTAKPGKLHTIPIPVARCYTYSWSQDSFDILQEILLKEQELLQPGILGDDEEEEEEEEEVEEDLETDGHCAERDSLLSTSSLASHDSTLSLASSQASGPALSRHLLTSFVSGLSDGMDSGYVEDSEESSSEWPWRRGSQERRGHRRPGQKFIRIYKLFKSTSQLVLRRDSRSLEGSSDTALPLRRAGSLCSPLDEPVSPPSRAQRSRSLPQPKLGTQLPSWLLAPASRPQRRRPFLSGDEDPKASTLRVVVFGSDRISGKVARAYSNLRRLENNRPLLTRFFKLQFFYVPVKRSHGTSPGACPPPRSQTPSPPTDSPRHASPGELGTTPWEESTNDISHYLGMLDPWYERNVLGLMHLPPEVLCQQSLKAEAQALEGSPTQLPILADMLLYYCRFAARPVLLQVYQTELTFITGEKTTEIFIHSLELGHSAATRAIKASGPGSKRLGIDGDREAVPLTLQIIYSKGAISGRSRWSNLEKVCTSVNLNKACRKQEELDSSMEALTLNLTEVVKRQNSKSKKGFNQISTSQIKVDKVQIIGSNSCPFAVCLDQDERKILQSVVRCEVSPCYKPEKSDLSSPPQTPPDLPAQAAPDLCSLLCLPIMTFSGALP
# protocol.summary: PI3Kγ in vitro kinase assay (32P-ATP, PIP2 lipid micelles, filter plate)
# condition.notes: purified recombinant p101/p110γ protein with G protein β1/γ2 subunits; 20 μM ATP; 25 μM PIP2; 20 minutes at room temperature
pIC50: −log10 of the molar value.
quantity.kind: pIC50

Record excerpt, results attached:
>>> obs_value("COc1cc2c(Sc3ccc(C(C)C)cc3)c(C(=O)Nc3nnn[nH]3)sc2cc1C")
6.43
>>> obs_value("COc1cc2sc(C(=O)Nc3nnn[nH]3)c(Sc3cccc(Cl)c3Cl)c2cc1OC")
5.95
>>> obs_value("COc1cc(Sc2c(C(=O)Nc3nnn[nH]3)sc3cc(OC)c(OC)cc23)ccc1O")
5.64
>>> obs_value("COc1cc2sc(C(=O)Nc3nnn[nH]3)c(Sc3cccc(O)c3)c2cc1C")
6.01

[1] COc1cc2sc(C(=O)Nc3nnn[nH]3)c(Sc3ccc(C)c(C)c3)c2cc1OC
[2] CCOc1ccc2sc(C(=O)Nc3nnn[nH]3)c(Sc3ccccc3)c2c1
[3] COc1cc2sc(C(=O)Nc3nnn[nH]3)c(Sc3ccc(Cl)c(Cl)c3)c2cc1OC
[4] COc1cc2c(Sc3ccc(CCC(=O)O)cc3)c(C(=O)Nc3nnn[nH]3)sc2cc1C
Sort ascending by pIC50. # answer = labels listed in requested order
1, 3, 4, 2
(1: 5.68, 3: 5.91, 4: 6.24, 2: 6.60)
